target: T1, human complement C3b protein (human, UniProt P01024 23-667; P01024 749-1663); experiment: bead proximity assay, C3b-acceptor beads; competitor biotinylated fB(D24G/N260D)
T1 construct: Purified plasma C3b (Complement Technology, Quidel); Depending on the assay it was captured by an anti-C3d antibody, coated, biotinylated or coupled to beads; also called human C3b; huC3b
T1 sequence (P01024 23-667 P314L, chain 1 of 2): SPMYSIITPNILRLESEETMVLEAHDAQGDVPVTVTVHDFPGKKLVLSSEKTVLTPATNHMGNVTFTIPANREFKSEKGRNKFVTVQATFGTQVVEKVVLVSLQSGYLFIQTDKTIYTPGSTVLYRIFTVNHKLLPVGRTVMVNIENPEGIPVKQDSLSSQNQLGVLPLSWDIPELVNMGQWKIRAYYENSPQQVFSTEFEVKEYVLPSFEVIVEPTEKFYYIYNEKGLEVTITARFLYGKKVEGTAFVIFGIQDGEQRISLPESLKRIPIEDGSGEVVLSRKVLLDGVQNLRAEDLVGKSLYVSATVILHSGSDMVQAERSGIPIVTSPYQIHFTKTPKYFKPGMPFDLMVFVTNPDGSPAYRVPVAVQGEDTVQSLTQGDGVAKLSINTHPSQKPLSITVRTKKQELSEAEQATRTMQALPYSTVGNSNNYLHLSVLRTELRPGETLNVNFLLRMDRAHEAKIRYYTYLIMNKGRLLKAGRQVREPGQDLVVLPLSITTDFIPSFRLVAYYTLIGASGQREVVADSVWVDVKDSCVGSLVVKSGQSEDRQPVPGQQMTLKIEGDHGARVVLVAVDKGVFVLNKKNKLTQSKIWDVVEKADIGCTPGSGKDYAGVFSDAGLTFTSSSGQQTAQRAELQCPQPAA
T1 sequence (P01024 749-1663, chain 2 of 2): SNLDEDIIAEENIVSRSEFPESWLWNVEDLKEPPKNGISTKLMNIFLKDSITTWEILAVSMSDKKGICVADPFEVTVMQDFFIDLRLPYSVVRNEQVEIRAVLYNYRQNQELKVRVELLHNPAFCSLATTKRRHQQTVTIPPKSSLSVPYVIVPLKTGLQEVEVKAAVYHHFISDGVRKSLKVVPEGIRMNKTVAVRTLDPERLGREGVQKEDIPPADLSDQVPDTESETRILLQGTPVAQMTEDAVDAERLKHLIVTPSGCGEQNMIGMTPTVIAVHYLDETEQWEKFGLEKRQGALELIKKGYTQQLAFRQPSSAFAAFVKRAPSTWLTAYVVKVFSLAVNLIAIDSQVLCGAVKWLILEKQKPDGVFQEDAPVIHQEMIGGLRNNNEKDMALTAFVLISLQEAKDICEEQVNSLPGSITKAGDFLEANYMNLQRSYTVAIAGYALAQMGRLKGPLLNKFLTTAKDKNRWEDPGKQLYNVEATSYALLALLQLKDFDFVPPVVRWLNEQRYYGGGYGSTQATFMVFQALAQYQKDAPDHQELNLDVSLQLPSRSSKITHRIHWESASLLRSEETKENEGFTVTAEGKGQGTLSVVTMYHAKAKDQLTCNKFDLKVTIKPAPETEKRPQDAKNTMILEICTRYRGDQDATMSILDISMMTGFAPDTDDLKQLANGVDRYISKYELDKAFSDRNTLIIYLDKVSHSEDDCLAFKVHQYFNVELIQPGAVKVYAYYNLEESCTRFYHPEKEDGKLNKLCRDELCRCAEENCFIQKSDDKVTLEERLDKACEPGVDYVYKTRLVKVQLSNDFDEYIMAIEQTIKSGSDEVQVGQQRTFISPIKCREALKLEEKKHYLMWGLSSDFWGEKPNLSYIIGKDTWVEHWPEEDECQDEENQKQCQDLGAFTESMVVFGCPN
quantity: IC50 (pM)

MOR09397 Fab (Fab, V domains shown, also called Fab 9397) VH: QVQLVESGGGLVQPGGSLRLSCAASGFTFSSYWMTWVRQAPGKGLEWVSSIKIKPDGYAASVKGRFTISRDNSKNTLYLQMNSLRAEDTAVYYCARLFYQYFARMDYWGQGTLVTVSS VL: DIQMTQSPSSLSASVGDRVTITCRASQDISNYLNWYQQKPGKAPKLLIYAASNLQSGVPSRFSGSGSGTDFTLTISSLQPEDFATYYCQQHDTFRPTFGQGTKVEIKR: 100
